Attribution: patent US7662810B2

Each item that follows carries a reported half-life at 500 μg/ml.
# System: Dihydropeptidase-1 (DHP-1) (Sus scrofa, UniProt P22412)
# Sequence (P22412 17-384): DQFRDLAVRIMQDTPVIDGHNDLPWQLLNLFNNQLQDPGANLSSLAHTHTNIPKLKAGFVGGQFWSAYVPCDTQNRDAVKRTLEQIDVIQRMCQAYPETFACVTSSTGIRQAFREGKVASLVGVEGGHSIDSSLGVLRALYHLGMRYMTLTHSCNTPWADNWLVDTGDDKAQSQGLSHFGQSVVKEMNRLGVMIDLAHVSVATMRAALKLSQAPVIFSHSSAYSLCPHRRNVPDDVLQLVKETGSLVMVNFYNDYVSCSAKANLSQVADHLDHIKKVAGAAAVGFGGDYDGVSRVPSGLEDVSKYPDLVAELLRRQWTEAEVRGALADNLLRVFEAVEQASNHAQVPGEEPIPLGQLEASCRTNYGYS
# Assay Explanation: Sensitivity Assay Against Dihydropeptidase-1 (DHP-1)
# Test Settings: pig, DHP-1 enzyme extracted from hog kidney
Endpoint Name: half-life at 500 μg/ml (h)

{"Compound": "C[C@@H](O)[C@H]1C(=O)N2C(C(=O)O)=C(SCCN=CN)C[C@H]12", "Endpoint Name": "half-life at 500 μg/ml", "Numeric Value": 2.39}
{"Compound": "C[C@@H](O)[C@H]1C(=O)N2C(C(=O)O)=C(S[C@@H]3CN[C@H](C(=O)N(C)C)C3)[C@H](C)[C@H]12 [Meropenem, reference compound]", "Endpoint Name": "half-life at 500 μg/ml", "Numeric Value": 18.3}

###

# Assay Explanation: Test of Pharmacokinetics in Animals (mice)
# Format: in vivo
# Test Settings: ICR, mouse, whole blood; mice, SC, 40 mg/kg; read-out: AUC (area under blood-medicament concentration curve till 24 hours from administration)

{"Compound": "C[C@@H](O)[C@H]1C(=O)N2C(C(=O)O)=C(S[C@@H]3CN[C@H](C(=O)N(C)C)C3)[C@H](C)[C@H]12 [Meropenem, reference compound]", "AUC [ng·h/mL]": 7500}

###

# Assay Explanation: Test of Pharmacokinetics in Animals (rats)
# Format: in vivo
# Test Settings: rat, whole blood; rats, SC, 20 mg/kg; read-out: T1/2 (half time of blood-medicament concentration) (converted)
Endpoint Name: half-life (min)

{"Compound": "C[C@@H](O)[C@H]1C(=O)N2C(C(=O)O)=C(S[C@@H]3CN[C@H](C(=O)N(C)C)C3)[C@H](C)[C@H]12 [Meropenem, reference compound]", "Endpoint Name": "half-life", "Numeric Value": 18.6}

###

Each item that follows carries a reported MIC.
# System: Staphylococcus aureus 285
# Assay Explanation: Measurement of Minimum Inhibitory Concentration (MIC)
# Format: cell-based
Endpoint Name: MIC

{"Compound": "COc1ccc(CN2CC(SC3=C(C(=O)[O-])N4C(=O)[C@H]([C@@H](C)O)[C@H]4[C@H]3C)C2)cc1.[K+] [Exam. 14]", "Result": "0.098 µg/mL"}
{"Compound": "COc1ccccc1CN1CC(SC2=C(C(=O)[O-])N3C(=O)[C@H]([C@@H](C)O)[C@H]3[C@H]2C)C1.[K+] [Exam. 16]", "Result": "0.025 µg/mL"}
{"Compound": "COc1ccc(CN2CC(SC3=C(C(=O)[O-])N4C(=O)[C@H]([C@@H](C)O)[C@H]4[C@H]3C)C2)cc1OC.[K+] [Exam. 17]", "Result": "0.025 µg/mL"}
{"Compound": "C[C@@H](O)[C@H]1C(=O)N2C(C(=O)[O-])=C(SC3CN(Cc4ccccc4)C3)[C@H](C)[C@H]12.[K+] [Exam. 13]", "Result": "0.025 µg/mL"}
{"Compound": "CN[C@H](CC(C)C)C(=O)N[C@H]1C(=O)N[C@@H](CC(N)=O)C(=O)N[C@H]2C(=O)N[C@H]3C(=O)N[C@H](C(=O)N[C@H](C(=O)O)c4cc(O)cc(O)c4-c4cc3ccc4O)[C@H](O)c3ccc(c(Cl)c3)Oc3cc2cc(c3O[C@@H]2O[C@H](CO)[C@@H](O)[C@H](O)[C@H]2O[C@H]2C[C@](C)(N)[C@H](O)[C@H](C)O2)Oc2ccc(cc2Cl)[C@H]1O [Vancomycin, vancomycin, reference compound]", "Result": "0.391 µg/mL"}
{"Compound": "C[C@@H](O)[C@H]1C(=O)N2C(C(=O)[O-])=C(SC3CN(Cc4ccc(F)cc4)C3)[C@H](C)[C@H]12.[K+] [Exam. 19]", "Result": "0.025 µg/mL"}
{"Compound": "C[C@@H](O)[C@H]1C(=O)N2C(C(=O)[O-])=C(SC3CN([C@@H](C)c4ccccc4)C3)[C@H](C)[C@H]12.[K+] [Exam. 22]", "Result": "0.025 µg/mL"}

###

Each item that follows carries a reported MIC.
# System: Staphylococcus aureus 694E
# Assay Explanation: Measurement of Minimum Inhibitory Concentration (MIC), MRSA
# Format: cell-based
# Test Settings: Staphylococcus aureus 694E
Endpoint Name: MIC (µg/mL)

{"Query Smiles": "COc1ccccc1CN1CC(SC2=C(C(=O)[O-])N3C(=O)[C@H]([C@@H](C)O)[C@H]3[C@H]2C)C1.[K+]", "Endpoint Name": "MIC", "Numeric Value": 0.049}
{"Query Smiles": "COc1ccc(CN2CC(SC3=C(C(=O)[O-])N4C(=O)[C@H]([C@@H](C)O)[C@H]4[C@H]3C)C2)cc1OC.[K+]", "Endpoint Name": "MIC", "Numeric Value": 0.098}
{"Query Smiles": "COc1ccc(CN2CC(SC3=C(C(=O)[O-])N4C(=O)[C@H]([C@@H](C)O)[C@H]4[C@H]3C)C2)cc1.[K+]", "Endpoint Name": "MIC", "Numeric Value": 0.098}
{"Query Smiles": "C[C@@H](O)[C@H]1C(=O)N2C(C(=O)[O-])=C(SC3CN(Cc4ccc(F)cc4)C3)[C@H](C)[C@H]12.[K+]", "Endpoint Name": "MIC", "Numeric Value": 3.125}
{"Query Smiles": "C[C@@H](O)[C@H]1C(=O)N2C(C(=O)[O-])=C(SC3CN(Cc4ccccc4)C3)[C@H](C)[C@H]12.[K+]", "Endpoint Name": "MIC", "Numeric Value": 1.563}
{"Query Smiles": "C[C@@H](O)[C@H]1C(=O)N2C(C(=O)[O-])=C(SC3CN([C@@H](C)c4ccccc4)C3)[C@H](C)[C@H]12.[K+]", "Endpoint Name": "MIC", "Numeric Value": 0.049}

###

# Assay Explanation: Test of Pharmacokinetics in Animals (mice)
# Type: in vivo
# Test Settings: ICR, mouse, whole blood; mice, SC, 40 mg/kg; read-out: T1/2 (half time of blood-medicament concentration) (converted)

{"Molecule": "C[C@@H](O)[C@H]1C(=O)N2C(C(=O)O)=C(S[C@@H]3CN[C@H](C(=O)N(C)C)C3)[C@H](C)[C@H]12 [Meropenem, reference compound]", "half-life": "25.8 min"}

###

# Assay Explanation: Test of Pharmacokinetics in Animals (rats)
# Assay type: in vivo
# Test Settings: rat, whole blood; rats, SC, 20 mg/kg; read-out: Tmax
Endpoint Name: Tmax (min)

{"Compound": "C[C@@H](O)[C@H]1C(=O)N2C(C(=O)O)=C(S[C@@H]3CN[C@H](C(=O)N(C)C)C3)[C@H](C)[C@H]12 [Meropenem, reference compound]", "Endpoint Name": "Tmax", "Numeric Value": 15}

###

// each record: one item and its Relative T1/2 for UniProtKB P22412

{"Compound": "Cc1ccc(CN2CC(SC3=C(C(=O)[O-])N4C(=O)[C@H]([C@@H](C)O)[C@H]4[C@H]3C)C2)cc1.[K+]", "System": "UniProtKB P22412", "Relative T1/2": 1.38}
{"Compound": "C[C@@H](O)[C@H]1C(=O)N2C(C(=O)[O-])=C(SC3CN(Cc4ccc(Cl)cc4)C3)[C@H](C)[C@H]12.[K+]", "System": "UniProtKB P22412", "Relative T1/2": 0.84}
{"Compound": "CC(c1ccc(Br)cc1)N1CC(SC2=C(C(=O)[O-])N3C(=O)[C@H]([C@@H](C)O)[C@H]3[C@H]2C)C1.[K+] (stereo partly drawn)", "System": "UniProtKB P22412", "Relative T1/2": 1.08}
{"Compound": "COc1cccc(CN2CC(SC3=C(C(=O)[O-])N4C(=O)[C@H]([C@@H](C)O)[C@H]4[C@H]3C)C2)c1.[K+]", "System": "UniProtKB P22412", "Relative T1/2": 1.54}
{"Compound": "C[C@@H](O)[C@H]1C(=O)N2C(C(=O)[O-])=C(SC3CN(Cc4cccc(C(F)(F)F)c4)C3)[C@H](C)[C@H]12.[K+]", "System": "UniProtKB P22412", "Relative T1/2": 0.88}
{"Compound": "C[C@H](c1ccccc1)N1CC(SC2=C(C(=O)[O-])N3C(=O)[C@H]([C@@H](C)O)[C@H]3[C@H]2C)C1.[K+]", "System": "UniProtKB P22412", "Relative T1/2": 1.88}
